Hello, the source for this data is patent US8563742B2, in case you need it.

# measurement-description: Stability in Liver Microsomes (mouse)
# Type: in vitro ADME
# condition: 1 μM, 0.5 mg protein/mL, NADPH, 60 minutes, 37° C., pH 7.4
readout-type: Stability in Liver Microsomes (% remaining after 1 hour incubation) Mouse

The compound identified as Cc1cc(CN(CCC(=O)[O-])c2nc(C3CCC(c4ccccc4)CC3)cs2)c(C)s1.[Na+] (centres unmarked) registered its Stability in Liver Microsomes (% remaining after 1 hour incubation) Mouse at 90%

The compound identified as "Cc1ccc(CN(CCC(=O)O)c2nc([C@H]3CC[C@H](c4ccccc4)CC3)cs2)s1" registered its Stability in Liver Microsomes (% remaining after 1 hour incubation) Mouse at 99%

The compound identified as CC(C)c1ccc(-c2csc(N(CCC(=O)[O-])Cc3cccs3)n2)cc1.[Na+] [Reference Compound A, reference compound] registered its Stability in Liver Microsomes (% remaining after 1 hour incubation) Mouse at 52%

The compound identified as O=C([O-])CCN(Cc1cccs1)c1nc(C2CCC(c3ccccc3)CC2)cs1.[Na+] (centres unmarked) [Reference Compound E, reference compound] registered its Stability in Liver Microsomes (% remaining after 1 hour incubation) Mouse at 51%

The compound identified as CC(C)(C)[C@H]1CC[C@H](c2csc(N(CCC(=O)O)Cc3cccs3)n2)CC1 [Reference Compound D, reference compound] registered its Stability in Liver Microsomes (% remaining after 1 hour incubation) Mouse at 79%

The compound identified as Cc1cc(CN(CCC(=O)O)c2nc(C3CCC(C(C)C)CC3)cs2)c(C)s1 (centres unmarked) registered its Stability in Liver Microsomes (% remaining after 1 hour incubation) Mouse at 71%

The compound identified as Cc1cc(CN(CCC(=O)O)c2nc(C3CCC(C(C)(C)C)CC3)cs2)c(C)s1 (centres unmarked) registered its Stability in Liver Microsomes (% remaining after 1 hour incubation) Mouse at 81%

The compound identified as "Cc1ccc(CN(CCC(=O)[O-])c2nc([C@H]3CC[C@H](C(C)(C)C)CC3)cs2)s1.[Na+]" registered its Stability in Liver Microsomes (% remaining after 1 hour incubation) Mouse at 68%

The compound identified as COC1CCC(c2csc(N(CCC(=O)O)Cc3ccc(C)s3)n2)CC1 (centres unmarked) registered its Stability in Liver Microsomes (% remaining after 1 hour incubation) Mouse at 91%

The compound identified as CCc1ccc(CN(CCC(=O)[O-])c2nc(-c3ccc(N4CCCC4)cc3)cs2)s1.[Na+] [Reference Compound F, reference compound] registered its Stability in Liver Microsomes (% remaining after 1 hour incubation) Mouse at 30%

The compound identified as CCC1CCC(c2csc(N(CCC(=O)O)Cc3ccc(C)s3)n2)CC1 (centres unmarked) registered its Stability in Liver Microsomes (% remaining after 1 hour incubation) Mouse at 73%

====

For each of the compounds below, state its concentration at 2 h.
# measurement-description: Pharmacokinetic screening in rats (plasma and brain)
# condition: male, Sprague Dawley, rat, brain, po, 5 mg/kg, Brain - 2 hours (ng/g), 5 mg/kg PO, 2 hour time point
Mention the unit after the number when you answer.

The compound identified as Cc1ccc(CN(CCC(=O)[O-])c2nc(C3(c4ccccc4)CCCCC3)cs2)s1.[Na+] [Example 6] registered its concentration at 2 h at 248 ng/g

The compound identified as CCc1ccc(CN(CCC(=O)O)c2nc(C3CC4CCCCC4C3)cs2)s1 (centres unmarked) [Example 58] registered its concentration at 2 h at 720 ng/g

The compound identified as CCc1ccc(CN(CCC(=O)O)c2nc(C3CCCCC3)cs2)s1 [Example 2] registered its concentration at 2 h at 80 ng/g

The compound identified as CCc1ccc(CN(CCC(=O)O)c2nc(CC3CCCC3)cs2)s1 [Example 4] registered its concentration at 2 h at 98 ng/g

The compound identified as Cc1cc(CN(CCC(=O)O)c2nc(C3CCC(C(C)(C)C)CC3)cs2)c(C)s1 (centres unmarked) [Example 25] registered its concentration at 2 h at 552 ng/g

The compound identified as CC(C)c1ccc(-c2csc(N(CCC(=O)[O-])Cc3cccs3)n2)cc1.[Na+] [Reference Compound A, reference compound] registered its concentration at 2 h at 1140 ng/g

The compound identified as CCc1ccc(CN(CCC(=O)O)c2nc(C3CCC(C)(C)CC3)cs2)s1 [Example 54] registered its concentration at 2 h at 2980 ng/g

The compound identified as Cc1ccc(CN(CCC(=O)O)c2nc(C3(C)CCC(C(C)C)CC3)cs2)s1 (centres unmarked) [Example 48] registered its concentration at 2 h at 251 ng/g
